Just for reference, the NIST ThermoML archive (doi:10.1016/j.fluid.2010.01.007) is where these values come from.

assay: activity coefficient (dimensionless); of the first substance listed, at infinite dilution; xn = mol fraction of the nth substance listed; conditions: 353.9 K; Liquid; Chromatography; x1 = 0
// activity coefficient lookup, one value per entry

Compound	activity coefficient
CC1(C)CO1 [2,2-dimethyloxirane] + CCCCn1cc[n+](C)c1.F[P-](F)(F)(F)(F)F	1.21
CCC1CO1 (stereo not drawn) [ethyloxirane] + CCCCn1cc[n+](C)c1.F[P-](F)(F)(F)(F)F	1.19
CCC1CO1 (stereo not drawn) [ethyloxirane] + CCCCn1cc[n+](C)c1.F[B-](F)(F)F	2.05
CCCCC1CO1 (stereo not drawn) [1,2-epoxyhexane] + CCCCn1cc[n+](C)c1.F[P-](F)(F)(F)(F)F	2.2
CC1CO1 (stereo not drawn) [methyloxirane] + CCCCn1cc[n+](C)c1.F[B-](F)(F)F	1.32
CCCCC1CO1 (stereo not drawn) [1,2-epoxyhexane] + CCCCn1cc[n+](C)c1.F[B-](F)(F)F	5.14
CC1(C)CO1 [2,2-dimethyloxirane] + CCCCn1cc[n+](C)c1.F[B-](F)(F)F	2.06
CC1CO1 (stereo not drawn) [methyloxirane] + CCCCn1cc[n+](C)c1.F[P-](F)(F)(F)(F)F	0.893

###

experiment: activity coefficient (dimensionless); of the first substance listed, at infinite dilution; xn = mol fraction of the nth substance listed; settings: 334.8 K; Liquid; Chromatography; x1 = 0

Molecule	activity coefficient
CCCCC1CO1 (stereo not drawn) [1,2-epoxyhexane] + CCCCn1cc[n+](C)c1.F[B-](F)(F)F	5.31
CC1CO1 (stereo not drawn) [methyloxirane] + CCCCn1cc[n+](C)c1.F[B-](F)(F)F	1.33
CC1(C)CO1 [2,2-dimethyloxirane] + CCCCn1cc[n+](C)c1.F[P-](F)(F)(F)(F)F	1.09

###

test: activity coefficient (dimensionless); of the first substance listed, at infinite dilution; xn = mol fraction of the nth substance listed; conditions: 325.2 K; Liquid; Chromatography; x1 = 0
Metric: activity coefficient

Compound	Value Observed
CC1(C)CO1 [2,2-dimethyloxirane] + CCCCn1cc[n+](C)c1.F[B-](F)(F)F	2.19
CC1CO1 (centres undefined) [methyloxirane] + CCCCn1cc[n+](C)c1.F[B-](F)(F)F	1.35
CCCCC1CO1 (centres undefined) [1,2-epoxyhexane] + CCCCn1cc[n+](C)c1.F[B-](F)(F)F	5.7
CCC1CO1 (centres undefined) [ethyloxirane] + CCCCn1cc[n+](C)c1.F[B-](F)(F)F	2.62

###

Each record here notes measured activity coefficient.
test: activity coefficient (dimensionless); of the first substance listed, at infinite dilution; xn = mol fraction of the nth substance listed; conditions: 334.8 K; Liquid; Chromatography; x1 = 0
Metric: activity coefficient

Molecule	Value Observed
CC1CO1 (stereo not given) [methyloxirane] + CCCCn1cc[n+](C)c1.F[P-](F)(F)(F)(F)F	0.838
CCC1CO1 (stereo not given) [ethyloxirane] + CCCCn1cc[n+](C)c1.F[B-](F)(F)F	2.14
CCCCC1CO1 (stereo not given) [1,2-epoxyhexane] + CCCCn1cc[n+](C)c1.F[P-](F)(F)(F)(F)F	1.94
CCC1CO1 (stereo not given) [ethyloxirane] + CCCCn1cc[n+](C)c1.F[P-](F)(F)(F)(F)F	1.13
CC1(C)CO1 [2,2-dimethyloxirane] + CCCCn1cc[n+](C)c1.F[B-](F)(F)F	2.13
